# EXPERIMENTAL PROTOCOL: Plasma and tissue concentration in high fat diet mice, day 36
# Type: in vivo, mice (Mus musculus—C57BL-6)
# EXPERIMENTAL SETUP: male, C57BL-6, mouse, liver, oral, 30 mg/kg, 4 hr, read-out: Liver
# Procedure: Doses were 30 and 50 mg/kg and administered orally (p.o.) once a day (QD) for 36 days. Dose volume was 10 mL/kg, which was administered to male, 18-22-week-old mice (Mus musculus—C57BL-6) with body weight between 18-19.4 g each. Mice were grouped into 3 groups of 10. […] Plasma lipid profile: On day 34 total cholesterol levels, triglyceride, HDL, and LDL levels were detected. […] Cumulative food consumption was measured daily starting from day 1 onwards up to end of the study period. […]
PROPERTY: concentration at 4 h (ng/mL)
Answer format: numeric, ng/mL implied, no suffix.

Briefly, concentration at 4 h measured for `O=c1[nH]c(-c2c[nH]c3cc(F)c(-c4ccc(C5(O)CCC5)cc4)c(F)c23)no1` : 106

---

# EXPERIMENTAL PROTOCOL: Plasma and tissue concentration in high fat diet mice, day 36
# Format: in vivo, mice (Mus musculus—C57BL-6)
# EXPERIMENTAL SETUP: male, C57BL-6, mouse, heart, oral, 50 mg/kg, 4 hr, read-out: Heart
PROPERTY: concentration at 4 h (ng/mL)
Answer format: numeric, ng/mL implied, no suffix.

Briefly, concentration at 4 h measured for `O=c1[nH]c(-c2c[nH]c3cc(F)c(-c4ccc(C5(O)CCC5)cc4)c(F)c23)no1` : 102

---

# EXPERIMENTAL PROTOCOL: Plasma and tissue concentration in high fat diet mice, day 36
# Format: in vivo, mice (Mus musculus—C57BL-6)
# EXPERIMENTAL SETUP: male, C57BL-6, mouse, plasma, oral, 30 mg/kg, 1 hr, read-out: Plasma
PROPERTY: concentration at 1 h (ng/mL)
Answer format: numeric, ng/mL implied, no suffix.

Briefly, concentration at 1 h measured for `O=c1[nH]c(-c2c[nH]c3cc(F)c(-c4ccc(C5(O)CCC5)cc4)c(F)c23)no1` : 627

---

# EXPERIMENTAL PROTOCOL: Plasma and tissue concentration in high fat diet mice, day 36
# Format: in vivo, mice (Mus musculus—C57BL-6)
# EXPERIMENTAL SETUP: male, C57BL-6, mouse, adipose tissue (abdominal fat), oral, 50 mg/kg, 4 hr, read-out: Adipose tissue (abdominal fat)
PROPERTY: concentration at 4 h (ng/mL)
Answer format: numeric, ng/mL implied, no suffix.

Briefly, concentration at 4 h measured for `O=c1[nH]c(-c2c[nH]c3cc(F)c(-c4ccc(C5(O)CCC5)cc4)c(F)c23)no1` : 1760

---

# EXPERIMENTAL PROTOCOL: Plasma and tissue concentration in high fat diet mice, day 36
# Format: in vivo, mice (Mus musculus—C57BL-6)
# EXPERIMENTAL SETUP: male, C57BL-6, mouse, liver, oral, 50 mg/kg, 4 hr, read-out: Liver
# Procedure: Doses were 30 and 50 mg/kg and administered orally (p.o.) once a day (QD) for 36 days. Dose volume was 10 mL/kg, which was administered to male, 18-22-week-old mice (Mus musculus—C57BL-6) with body weight between 18-19.4 g each. Mice were grouped into 3 groups of 10. […] Plasma lipid profile: On day 34 total cholesterol levels, triglyceride, HDL, and LDL levels were detected. […] Cumulative food consumption was measured daily starting from day 1 onwards up to end of the study period. […]
PROPERTY: concentration at 4 h (ng/mL)
Answer format: numeric, ng/mL implied, no suffix.

Briefly, concentration at 4 h measured for `O=c1[nH]c(-c2c[nH]c3cc(F)c(-c4ccc(C5(O)CCC5)cc4)c(F)c23)no1` : 71

Hello, the source for this data is patent US20250388571A1, in case you need it.
